- TARGET DESC: Stp1 (UniProt B3LFK1)
- Sequence: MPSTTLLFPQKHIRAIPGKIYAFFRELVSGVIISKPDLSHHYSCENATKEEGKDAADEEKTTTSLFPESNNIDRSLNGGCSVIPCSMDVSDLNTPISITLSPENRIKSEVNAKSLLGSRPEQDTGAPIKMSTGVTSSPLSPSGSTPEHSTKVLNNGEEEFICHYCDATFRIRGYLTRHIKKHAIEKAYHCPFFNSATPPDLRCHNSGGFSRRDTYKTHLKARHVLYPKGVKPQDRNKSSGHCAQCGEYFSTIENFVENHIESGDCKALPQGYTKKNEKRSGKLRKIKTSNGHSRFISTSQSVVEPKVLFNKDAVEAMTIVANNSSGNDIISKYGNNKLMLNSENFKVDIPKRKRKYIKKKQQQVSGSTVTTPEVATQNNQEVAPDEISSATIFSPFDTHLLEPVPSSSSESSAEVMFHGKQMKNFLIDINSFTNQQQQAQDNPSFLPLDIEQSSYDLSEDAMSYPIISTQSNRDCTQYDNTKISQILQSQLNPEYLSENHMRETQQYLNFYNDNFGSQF
- EXPERIMENT SUMMARY: PBM E-score (8-mer binding enrichment) (E-score (-0.5 to 0.5)); higher = stronger / more preferred TF binding
- PROTOCOL CONDITIONS: protein concentration: 200 nM; construct: GST-full length
Over roughly 33,000 sequences, “E-score (-0.5 to 0.5)” has its median near -0.016; the highest 2% begin near 0.32. What follows is part of a selection rich in the highest values, with near analogues and random picks from the rest.
Each entry falls in a class defined on PBM E-score; the bands are low bin: < -0.03; mid bin: ≥ -0.03 and < 0.2; high bin: ≥ 0.2

- SEQUENCE DATA: "GTGAGGCA"
  CLASS LABEL: "high bin"
- SEQUENCE DATA: "AGAGTACA"
  CLASS LABEL: "mid bin"
- SEQUENCE DATA: "CAACGCAC"
  CLASS LABEL: "mid bin"
- SEQUENCE DATA: "ACCGTACC"
  CLASS LABEL: "mid bin"
- SEQUENCE DATA: "AAAATGCC"
  CLASS LABEL: "high bin"
- SEQUENCE DATA: "GGGTTCCA"
  CLASS LABEL: "low bin"
- SEQUENCE DATA: "GCCGTACC"
  CLASS LABEL: "high bin"
- SEQUENCE DATA: "CGGGCACA"
  CLASS LABEL: "low bin"
- SEQUENCE DATA: "ATGGCGCC"
  CLASS LABEL: "high bin"
- SEQUENCE DATA: "AGTTGACC"
  CLASS LABEL: "low bin"
- SEQUENCE DATA: "CGGACGGC"
  CLASS LABEL: "high bin"
- SEQUENCE DATA: "ACCGCCTC"
  CLASS LABEL: "low bin"
- SEQUENCE DATA: "ACCGCGGT"
  CLASS LABEL: "low bin"
- SEQUENCE DATA: "AAGAGGCT"
  CLASS LABEL: "mid bin"
- SEQUENCE DATA: "TCCGCGGA"
  CLASS LABEL: "mid bin"
- SEQUENCE DATA: "ACGGCACA"
  CLASS LABEL: "high bin"
- SEQUENCE DATA: "CATGTGGC"
  CLASS LABEL: "high bin"
- SEQUENCE DATA: "GAGTAGAC"
  CLASS LABEL: "mid bin"
- SEQUENCE DATA: "AAGGCGCC"
  CLASS LABEL: "high bin"
- SEQUENCE DATA: "GACTAGCC"
  CLASS LABEL: "low bin"
- SEQUENCE DATA: "ATGCCTCG"
  CLASS LABEL: "high bin"
- SEQUENCE DATA: "CCCGTACC"
  CLASS LABEL: "mid bin"
- SEQUENCE DATA: "AGACCCTC"
  CLASS LABEL: "low bin"
- SEQUENCE DATA: "CCTCTACC"
  CLASS LABEL: "low bin"
- SEQUENCE DATA: "AGGACGGG"
  CLASS LABEL: "low bin"
- SEQUENCE DATA: "ATGCCTCC"
  CLASS LABEL: "mid bin"
- SEQUENCE DATA: "ACGGGGAT"
  CLASS LABEL: "low bin"
- SEQUENCE DATA: "ATACTCGC"
  CLASS LABEL: "low bin"
- SEQUENCE DATA: "ACCTAGAT"
  CLASS LABEL: "low bin"
- SEQUENCE DATA: "CCGTGCGA"
  CLASS LABEL: "high bin"
- SEQUENCE DATA: "ACTGGAAG"
  CLASS LABEL: "low bin"
- SEQUENCE DATA: "CTGAGGCA"
  CLASS LABEL: "mid bin"
- SEQUENCE DATA: "CAGAGCTA"
  CLASS LABEL: "low bin"
- SEQUENCE DATA: "CTGGCGCC"
  CLASS LABEL: "high bin"
- SEQUENCE DATA: "AATGTGGC"
  CLASS LABEL: "mid bin"
- SEQUENCE DATA: "GGGAGGCA"
  CLASS LABEL: "mid bin"
- SEQUENCE DATA: "CTTATAAA"
  CLASS LABEL: "mid bin"
- SEQUENCE DATA: "AGGACGGC"
  CLASS LABEL: "high bin"
- SEQUENCE DATA: "GAGGCGCC"
  CLASS LABEL: "high bin"
- SEQUENCE DATA: "CCCGCGGA"
  CLASS LABEL: "mid bin"
- SEQUENCE DATA: "AACAGTGT"
  CLASS LABEL: "low bin"
- SEQUENCE DATA: "GATGGTCC"
  CLASS LABEL: "low bin"
- SEQUENCE DATA: "CCCGTACA"
  CLASS LABEL: "low bin"
- SEQUENCE DATA: "AAAATGCA"
  CLASS LABEL: "low bin"
- SEQUENCE DATA: "ATGAGGAA"
  CLASS LABEL: "mid bin"
- SEQUENCE DATA: "GCGATGCA"
  CLASS LABEL: "low bin"
- SEQUENCE DATA: "GAGAGGCA"
  CLASS LABEL: "high bin"
- SEQUENCE DATA: "CTGAGGTA"
  CLASS LABEL: "low bin"
- SEQUENCE DATA: "GAGGCCCC"
  CLASS LABEL: "low bin"
- SEQUENCE DATA: "CCCTAAAC"
  CLASS LABEL: "low bin"
- SEQUENCE DATA: "CGCCCTGC"
  CLASS LABEL: "high bin"
- SEQUENCE DATA: "ATGAGGCG"
  CLASS LABEL: "high bin"
- SEQUENCE DATA: "AAGCCTCA"
  CLASS LABEL: "mid bin"
- SEQUENCE DATA: "CCGTGCTC"
  CLASS LABEL: "high bin"
- SEQUENCE DATA: "ACGCCTCT"
  CLASS LABEL: "mid bin"
- SEQUENCE DATA: "GCCGTACA"
  CLASS LABEL: "high bin"
- SEQUENCE DATA: "GTTATAAA"
  CLASS LABEL: "mid bin"
- SEQUENCE DATA: "ACGCCTCC"
  CLASS LABEL: "low bin"
- SEQUENCE DATA: "CGTGTGGC"
  CLASS LABEL: "high bin"
- SEQUENCE DATA: "CAGGCGCC"
  CLASS LABEL: "high bin"
- SEQUENCE DATA: "AAGGCGTC"
  CLASS LABEL: "high bin"
- SEQUENCE DATA: "GCCGCGAA"
  CLASS LABEL: "mid bin"
- SEQUENCE DATA: "GCGGTCCC"
  CLASS LABEL: "low bin"
- SEQUENCE DATA: "CGCGCCTC"
  CLASS LABEL: "high bin"
- SEQUENCE DATA: "AAGAGGCG"
  CLASS LABEL: "high bin"
- SEQUENCE DATA: "TGAGAAAA"
  CLASS LABEL: "mid bin"
- SEQUENCE DATA: "CCGGCACA"
  CLASS LABEL: "mid bin"
- SEQUENCE DATA: "CGTATAAC"
  CLASS LABEL: "high bin"
- SEQUENCE DATA: "AAAATGCT"
  CLASS LABEL: "mid bin"
- SEQUENCE DATA: "AATGTAGC"
  CLASS LABEL: "low bin"
- SEQUENCE DATA: "ACCGCGGA"
  CLASS LABEL: "mid bin"
- SEQUENCE DATA: "ACGTGCGC"
  CLASS LABEL: "mid bin"
- SEQUENCE DATA: "ATGAGGCC"
  CLASS LABEL: "mid bin"
- SEQUENCE DATA: "CGATCAGA"
  CLASS LABEL: "low bin"
- SEQUENCE DATA: "AGCGAACT"
  CLASS LABEL: "mid bin"
- SEQUENCE DATA: "ACGGCACG"
  CLASS LABEL: "high bin"
- SEQUENCE DATA: "GCGTGCGA"
  CLASS LABEL: "mid bin"
- SEQUENCE DATA: "ATGAGGTG"
  CLASS LABEL: "low bin"
- SEQUENCE DATA: "TAACCACA"
  CLASS LABEL: "mid bin"
- SEQUENCE DATA: "AGCGCCTC"
  CLASS LABEL: "high bin"
- SEQUENCE DATA: "ATTTCAAA"
  CLASS LABEL: "mid bin"
- SEQUENCE DATA: "AACGCCCA"
  CLASS LABEL: "mid bin"
- SEQUENCE DATA: "GCCGCGGA"
  CLASS LABEL: "high bin"
- SEQUENCE DATA: "GAGGCGCA"
  CLASS LABEL: "high bin"
- SEQUENCE DATA: "CCGATGCC"
  CLASS LABEL: "high bin"
- SEQUENCE DATA: "CGCGCCTA"
  CLASS LABEL: "high bin"
